Origin of measurements: ChEMBL document CHEMBL4765255

molecular target: UniProt:Q9NWZ3; assay: Inhibition of recombinant human His-tagged full length IRAK4 expressed in baculovirus expression system using Ser/Thr07 peptide as substrate incubated for 1 hr by Z'lyte assay
Sequence (Q9NWZ3 whole entry): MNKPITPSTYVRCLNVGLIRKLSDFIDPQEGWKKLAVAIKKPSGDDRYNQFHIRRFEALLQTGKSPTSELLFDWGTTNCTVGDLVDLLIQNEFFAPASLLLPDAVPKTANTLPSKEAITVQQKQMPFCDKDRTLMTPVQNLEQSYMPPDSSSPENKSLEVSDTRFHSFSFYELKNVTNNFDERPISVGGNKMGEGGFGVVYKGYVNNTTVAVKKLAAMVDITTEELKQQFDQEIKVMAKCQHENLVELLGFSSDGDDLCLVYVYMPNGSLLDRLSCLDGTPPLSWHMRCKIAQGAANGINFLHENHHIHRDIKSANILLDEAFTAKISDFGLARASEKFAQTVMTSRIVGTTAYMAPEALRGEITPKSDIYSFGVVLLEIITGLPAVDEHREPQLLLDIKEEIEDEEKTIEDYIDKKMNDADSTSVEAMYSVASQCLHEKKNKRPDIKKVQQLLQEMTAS
property: IC50

What does the data say about its IC50? Entry: Cn1cc(NC(=O)c2cnc3ccc(N[C@@H]4CCCNC4)nn23)c(C(F)(F)F)n1 23.5 nM

What does the data say about its IC50? Entry: Cn1cc(NC(=O)c2cnc3ccc(NCCN)nn23)c(C(F)F)n1 17.5 nM

What does the data say about its IC50? Entry: Cn1cc(NC(=O)c2cnc3ccc(N[C@@H]4CCNC4)nn23)c(C(F)F)n1 7.7 nM

What does the data say about its IC50? Entry: Cn1cc(NC(=O)c2cnn3ccc(N4CCC[C@@H](N)C4)nc23)c(C(F)F)n1 9.3 nM

What does the data say about its IC50? Entry: Cn1cc(NC(=O)c2ncn3ccc(N4CCC[C@@H](N)C4)nc23)c(C(F)F)n1 > 1000 nM
